test system: oral squamous cell carcinoma (SAS); assay: In vitro anticancer assay (MTT), SAS; format: cell-based; conditions: SAS cells, 48 hrs, mean ± spread, read-out: Anti-proliferative evaluation IC50, SAS
readout-name: pIC50
One number for each entry, as −log10 of the molar value.

COc1ccc2c(c1)C(=NOCc1ccccc1)c1c-2c(N2CCNCC2)nc2ccccc12 [Compound 6x] :: 5.12

I need pIC50 for every entry listed below, if you could help.
1. COc1ccc2c(c1)C(=O)c1c-2c(N2CCN(C(=O)CCNCCO)CC2)nc2ccccc12 [Compound 5aaa]
2. CNCCC(=O)N1CCN(c2nc3ccccc3c3c2-c2ccc(OC)cc2C3=O)CC1 [Compound 5xx]
3. COc1ccc2c(c1)C(=NOCCN(C)C)c1c-2c(N2CCNCC2)nc2ccccc12 [Compound 6r]
4. COc1cc2c(cc1OC)-c1c(N3CCNCC3)nc3ccccc3c1C2=O [Compound 5dd]
5. COc1ccc2c(c1)C(=O)c1c-2c(N2CCN(C(=O)CCNCCN(C)C)CC2)nc2ccccc12 [Compound 5bbb]
6. CON=C1c2cc(OC)ccc2-c2c(N3CCN(C(=O)CCNCCN(C)C)CC3)nc3ccccc3c21 [Compound 6o]
7. COc1ccc2c(c1)C(=NO)c1c-2c(OC)nc2ccccc12 [Compound 6e]
8. COc1ccc2c(c1OC)C(=O)c1c-2c(N2CCNCC2)nc2ccc(Cl)cc12 [Compound 5ff]

[5.04, 5.16, 5.62, 4.93, 5.06, 4.72, 5.02, 4.96]

Quick request: pIC50 for each listed item, please.
1. COc1ccc2c(c1)C(=O)c1c-2c(N2CCN(C(=O)CNCCNCCO)CC2)nc2ccccc12 [Compound 5rr]
2. COc1ccc2c(c1)C(=O)c1c-2c(N2CCNC(C)C2)nc2ccccc12 (centres unmarked) [Compound 5y]
3. O=C1c2ccccc2-c2c(N3CCNCC3)nc3ccccc3c21 [Compound 5aa]

1. 5.07
2. 4.87
3. 4.97

// input: 3 compounds below; output: pIC50 for each
1. COc1ccc2c(c1)C(=O)c1c-2c(N2CCN(C(=O)CCCN(C)C)CC2)nc2ccccc12 [Compound 5jjj]
2. COc1ccc2c(c1)C(=O)c1c-2c(N2CCN(C(=O)CNCCN(C)C)CC2)nc2ccccc12 [Compound 5oo]
3. COc1ccc2c(c1)C(=NOCCN1CCCCC1)c1c-2c(N2CCNCC2)nc2ccccc12 [Compound 6v]

1: 5.10; 2: 4.71; 3: 5.24

I would be grateful if you could provide pIC50 for each of the following entries.
1. COc1ccc2c(c1)C(=O)c1c-2c(N2CCN(C(=O)CN3CCNCC3)CC2)nc2ccccc12 [Compound 5tt]
2. COc1ccc2c(c1)C(=O)c1c-2c(NCCCN(C)C)nc2ccccc12 [Compound 5i]

1. 5.13
2. 5.26

The reported measurements were obtained from patent US7829567B2.
